Listed next: entries and their corresponding SH2 binding enrichment.
Measurement Target: SHP2-C SH2;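 further: peptide library displayed on the E. coli surface as eCPX fusions, selected cells deep-sequenced, score is each peptide's frequency after selection divided by its frequency in the input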
Experimental Protocol: SH2 binding enrichment of the phosphorylated peptide, bacterial display (enrichment ratio); higher = better substrate or ligand; peptides without Tyr show the background
Quantity: SH2 binding enrichment

                        sequence_string  numeric_readout
 0     CNTIHYNFMCN [TP53_Y234_T230N_YF]             1.27
 1         WNDLDYVDSRR [GAA_Y407_M408V]            0.796
 2        IPPRRYFCSGV [STAMBP_Y36_R38C]            0.621
 3     EQKKYYNATKK [SCN5A_Y1495_M1498T]             1.04
 4             IDFARYWHGDD [MMP11_Y162]            0.878
 5     KFACSYTPVKA [FLNB_Y708_T703K_YF]             1.99
 6            FLEKFYKFGSR [NNMT_Y25_YF]            0.789
 7                          GYIISYREEEQ             1.04
 8             PFQGAYLEINK [MYO1B_Y967]            0.832
 9        SVMVPYEPPEV [TP53_Y220_V217M]            0.626
10     VSFDEYRFRSF [CFTR_Y515_V520F_YF]            0.715
11     VFGVSYDEFRF [CFTR_Y512_I507V_YF]             1.09
12     CTTIHYNFMCK [TP53_Y234_N239K_YF]             2.05
13             ITVCDYTNPCT [MYD88_Y276]            0.603
14              RHFTGYRIELQ [INSR_Y818]             2.13
15         NSVLVYRNGDP [DCDC2_Y22_K17N]            0.614
16              KHTLSYVDVGT [SDHA_Y629]            0.967
17     HHTDECEFDEL [TGM1_Y134_Y134C_YF]            0.628
18           SGFESYGSSSS [RPA2_Y9_Y14S]            0.737
19         SFPPTYRFERG [INPPL1_Y661_YF]            0.767
20           SRLDSYVRSLP [TRAPPC1_Y133]            0.531
21            EGLKVYVNGTL [ADGRD1_Y183]            0.757
22     LFMGDYVGRGF [PPP2CA_Y86_D88G_YF]            0.817
23     LGPSDYFGEIV [PRKAR1A_Y323_A328V]            0.738
24         ITNLLYHVVSW [GBA_Y412_G416S]             1.15
25       FGYPGYQCKHY [TIMP3_Y177_S179C]            0.876
26           NCFKFYMSDDI [ATRX_Y204_YF]            0.721
27            LLNPRYNLPLD [TOM1L1_Y109]            0.827
28       NREGVYRVFAP [TGFBI_Y537_T538R]            0.774
29        LSQQVYRVNLS [FAT4_Y480_F475L]             0.67
30              HVSISYDIPPT [GAB1_Y307]            0.548
31     ISDNACQFMLT [MYH7_Y162_Y162C_YF]            0.687
32        MDNQEYKDAYT [BRDT_Y331_K336T]            0.655
33        LEDEVCAQKMK [TPM2_Y261_Y261C]             1.38
34        AHARMYGVLPW [PLP1_Y207_D203H]             1.19
35          KSLFHYRQFSA [CPS1_Y1491_YF]            0.601
36       EEQFFYEKAIL [BCCIP_Y257_E254Q]            0.795
37      REIHDYIKHLG [UNC13C_Y308_D304E]            0.475
38        SVTCTYCPALN [TP53_Y126_S127C]             1.35
39               RHTRSYDYMEG [FGF7_Y56]             1.06
40                          TDGIAYEFRVI            0.642
41            WFKKFYDANYD [MAPRE2_Y158]            0.722
42             NACGLYHKMNG [GATA5_Y216]            0.945
43               RKNAKYLLKGE [CDH5_Y82]             1.06
44       HELYVYKSDEN [DOCK3_Y548_C550S]            0.772
45           FKGIVYSVSSD [DCX_Y70_A71S]            0.695
46              KNNSIYVVANI [VNN1_Y134]             1.05
47          FSTDFYRVGGH [NTRK2_Y707_YF]            0.702
48             AFSLKYEQQTQ [SYTL4_Y366]             0.67
49          AHAGKYGAEAL [HBA1_Y25_E24K]            0.608
50         SVETPYVSVTF [NDRG2_Y47_G48V]            0.827
51     DFEGLYQEGGG [TMEM159_Y159_E154D]            0.461
52              AGIENYTSRFG [NKD2_Y256]            0.625
53         RNLLIYTEFGK [HGD_Y166_G161R]            0.194
54  RAFRHYLLKQK [SCN2A_Y1919_R1918H_YF]            0.439
55           PFSNPYENSLI [EPOR_Y489_YF]            0.501
56       GCRSKYVRLWG [KCNQ1_Y184_G186R]              1.6
57       EWLRRYLKNGK [HLA-C_Y195_E197K]            0.409
